The measured values listed here are drawn from ChEMBL document CHEMBL1128176.

molecular target: Leukotriene B4 receptor (Homo sapiens, UniProt Q9NPC1+Q15722); assay: Inhibition of LTB4 induced expression of human neutrophil integrin CD11b/CD18.; type: functional
# strict inequality: IC50 < 10 nM yields yes, everything else yields no

Lookup: Strictly below 10 nM: is that where IC50 of `CCc1cc(-c2ccc(F)cc2)c(O)cc1OCCCOc1ccccc1CCC(=O)O` sits?
Found: no

Lookup: Strictly below 10 nM: is that where IC50 of `CCc1cc(-c2ccc(F)cc2)c(O)cc1OCCCOc1cccc(Oc2ccccc2C(=O)O)c1Cc1ccccc1` sits?
Found: no

Lookup: Strictly below 10 nM: is that where IC50 of `CCCCc1c(OCCCOc2cc(O)c(-c3ccc(F)cc3)cc2CC)cccc1Oc1ccccc1C(=O)O` sits?
Found: no

Lookup: Strictly below 10 nM: is that where IC50 of `CCCc1c(OCCCOc2cc(O)c(-c3ccc(F)cc3)cc2CC)cccc1Oc1ccccc1C(=O)O` sits?
Found: yes

Lookup: Strictly below 10 nM: is that where IC50 of `CCCc1c(OCCCOc2cc(O)c(-c3ccccc3)cc2CC)cccc1Oc1ccccc1C(=O)O` sits?
Found: no

Lookup: Strictly below 10 nM: is that where IC50 of CCCc1c(OCCCOc2cc(O)c(-c3ccccc3)cc2CC)ccc2c1OC(C(=O)O)CC2 (centres undefined) sits?
Found: no

Lookup: Strictly below 10 nM: is that where IC50 of `CCc1cc(-c2ccc(F)cc2)c(O)cc1OCCCOc1cccc(OCCCCC(=O)N(C)C)c1CCC(=O)O` sits?
Found: yes

Lookup: Strictly below 10 nM: is that where IC50 of `CCCc1c(OCCCOc2cc(O)c(-c3ccc(F)cc3)cc2CC)cccc1Oc1cc(F)ccc1C(=O)O` sits?
Found: yes

Lookup: Strictly below 10 nM: is that where IC50 of `CCCc1c(OCCCOc2cc(O)c(-c3ccc(F)cc3)cc2CC)cccc1Oc1ccccc1CC(=O)O` sits?
Found: yes

----------
target: Leukotriene B4 receptor (Homo sapiens, UniProt Q9NPC1+Q15722); assay: Binding affinity towards human LTB4 receptor measured as inhibition of binding of [3H]LTB4 to isolated human neutrophils
READOUT_LABEL: Ki (nM)
Give the number; nM is assumed, so skip it.

Ki for Leukotriene B4 receptor (Homo sapiens, UniProt Q9NPC1+Q15722) with input `CCc1cc(-c2ccccc2)c(O)cc1OCCCOc1ccc2c(=O)c3ccccc3oc2c1CCC(=O)O` equals 22

Ki for Leukotriene B4 receptor (Homo sapiens, UniProt Q9NPC1+Q15722) with input `CCCc1cc(CC)c(OCCCCCC(C)(C)c2nn[nH]n2)cc1O` equals 9.3

Ki for Leukotriene B4 receptor (Homo sapiens, UniProt Q9NPC1+Q15722) with input `CCc1cc(-c2ccc(F)cc2)c(O)cc1OCCCOc1cccc(OC)c1CCC(=O)O` equals 8.3

Ki for Leukotriene B4 receptor (Homo sapiens, UniProt Q9NPC1+Q15722) with input `CCCc1c(OCCCOc2cc(O)c(-c3ccc(F)cc3)cc2CC)cccc1Oc1ccccc1C(=O)O` equals 17

Ki for Leukotriene B4 receptor (Homo sapiens, UniProt Q9NPC1+Q15722) with input `CCCc1c(OCCCOc2cc(O)c(-c3ccc(F)cc3)cc2CC)cccc1Sc1ccccc1C(=O)O` equals 350

Ki for Leukotriene B4 receptor (Homo sapiens, UniProt Q9NPC1+Q15722) with input `CCCCc1c(OCCCOc2cc(O)c(-c3ccc(F)cc3)cc2CC)cccc1Oc1ccccc1C(=O)O` equals 34

Ki for Leukotriene B4 receptor (Homo sapiens, UniProt Q9NPC1+Q15722) with input `CCc1cc(-c2ccc(F)cc2)c(O)cc1OCCCOc1cccc(Oc2ccccc2C(=O)O)c1CC(C)C` equals 36

Ki for Leukotriene B4 receptor (Homo sapiens, UniProt Q9NPC1+Q15722) with input `CCCc1c(OCCCCOc2cc(O)c(-c3ccc(F)cc3)cc2CC)cccc1Oc1ccccc1C(=O)O` equals 39

Ki for Leukotriene B4 receptor (Homo sapiens, UniProt Q9NPC1+Q15722) with input `CCc1cc(-c2ccc(F)cc2)c(O)cc1OCCCOc1ccc2c(=O)c3ccccc3oc2c1CCC(=O)O` equals 36

----------
Consider the following compounds; for each one, report its Ki.
target: Leukotriene B4 receptor (Cavia porcellus); test: Binding affinity towards Leukotriene B4 receptor guinea pig lung membrane using [3H]LTB4 as radioligand
Give the number; nM is assumed, so skip it.

Entry `CCCc1c(OCCCOc2cc(O)c(-c3ccc(F)cc3)cc2CC)cccc1Oc1cccc(F)c1C(=O)O` — recorded Ki = 9.5

Entry `CCCc1c(OCCCOc2cc(O)c(-c3ccc(F)cc3)cc2CC)cccc1Sc1ccccc1C(=O)O` — recorded Ki = 11

Entry `CCc1cc(-c2ccc(F)cc2)c(O)cc1OCCCOc1cccc(Oc2ccccc2C(=O)O)c1CC(C)C` — recorded Ki = 14

Entry `CCCc1c(OCCCCCOc2cc(O)c(-c3ccc(F)cc3)cc2CC)cccc1Oc1ccccc1C(=O)O` — recorded Ki = 6.8

Entry `CCCc1c(OCCCOc2cc(O)c(-c3ccc(F)cc3)cc2CC)cccc1Oc1ccccc1CC(=O)O` — recorded Ki = 8.4

----------
Consider the following molecules; for each one, report its Ki.
target: Leukotriene B4 receptor (Cavia porcellus); assay: Binding affinity towards Leukotriene B4 receptor guinea pig lung membrane using [3H]LTB4 as radioligand
Give the number; µM is assumed, so skip it.

Entry `CCCc1c(OCCCOc2cc(O)c(-c3ccccc3)cc2CC)cccc1Oc1ccccc1C(=O)O` — recorded Ki = 0.016

Entry `CCCc1c(OCCCOc2cc(O)c(-c3ccc(F)cc3)cc2CC)cccc1Oc1cc(F)ccc1C(=O)O` — recorded Ki = 0.019

Entry `CCc1cc(-c2ccccc2)c(O)cc1OCCCOc1ccc2c(=O)c3cc(C(=O)O)ccc3oc2c1CCC(=O)O` — recorded Ki = 0.00011

Entry `CCc1cc(-c2ccc(F)cc2)c(O)cc1OCCCOc1cccc(OC)c1CCC(=O)O` — recorded Ki = 0.0064

Entry `CCCc1c(OCCCCOc2cc(O)c(-c3ccc(F)cc3)cc2CC)cccc1Oc1ccccc1C(=O)O` — recorded Ki = 0.019

Entry CCCc1c(OCCCOc2cc(O)c(-c3ccccc3)cc2CC)ccc2c1OC(C(=O)O)CC2 (centres undefined) — recorded Ki = 0.0028

Entry `CCc1cc(-c2ccc(F)cc2)c(O)cc1OCCCOc1cccc(Oc2ccccc2C(=O)O)c1Cc1ccccc1` — recorded Ki = 0.055

Entry CCCc1c(OCCCOc2cc(O)c(-c3ccc(F)cc3)cc2CC)ccc2c1OC(C(=O)O)CC2 (centres undefined) — recorded Ki = 0.0044

Entry `CCCc1c(OCCCOc2cc(O)c(-c3ccccc3)cc2CC)cccc1Oc1cccc(F)c1C(=O)O` — recorded Ki = 0.014

----------
target: Leukotriene B4 receptor (Cavia porcellus); experiment: Binding affinity towards Leukotriene B4 receptor guinea pig lung membrane using [3H]LTB4 as radioligand
READOUT_LABEL: Ki (nM)
Give the number; nM is assumed, so skip it.

Entry `CCCc1c(OCCCOc2cc(O)c(-c3ccc(F)cc3)cc2CC)cccc1C(=O)c1ccccc1C(=O)O` — recorded Ki = 11

Entry `CCCc1c(OCCCOc2cc(O)c(-c3ccc(F)cc3)cc2CC)cccc1Oc1ccccc1C(=O)O` — recorded Ki = 6.6

Entry `CCc1cc(-c2ccc(F)cc2)c(O)cc1OCCCOc1ccccc1CCC(=O)O` — recorded Ki = 3.8

Entry CCCc1c(OCCCOc2cc(O)c(-c3ccc(F)cc3)cc2CC)cccc1[S+]([O-])c1ccccc1C(=O)O (centres undefined) — recorded Ki = 1.4

----------
target: Leukotriene B4 receptor (Homo sapiens, UniProt Q9NPC1+Q15722); assay: Binding affinity towards human LTB4 receptor measured as inhibition of binding of [3H]LTB4 to isolated human neutrophils
# strict inequality: Ki < 30 nM yields TRUE, everything else yields FALSE

Lookup: Strictly below 30 nM: is that where Ki of `CCc1cc(-c2ccc(F)cc2)c(O)cc1OCCCOc1ccccc1CCC(=O)O` sits?
Found: TRUE

Lookup: Strictly below 30 nM: is that where Ki of `CCc1cc(-c2ccc(F)cc2)c(O)cc1OCCCOc1cccc(OCCCCc2nnn[nH]2)c1CCC(=O)O` sits?
Found: TRUE

Lookup: Strictly below 30 nM: is that where Ki of `CCc1cc(-c2ccc(F)cc2)c(O)cc1OCCCOc1ccccc1CCc1nnn[nH]1` sits?
Found: TRUE

Lookup: Strictly below 30 nM: is that where Ki of `CCCc1c(OCCCOc2cc(O)c(-c3ccccc3)cc2CC)cccc1Oc1cccc(F)c1C(=O)O` sits?
Found: TRUE

Lookup: Strictly below 30 nM: is that where Ki of `CCc1cc(-c2ccc(F)cc2)c(O)cc1OCCCOc1cccc(Oc2ccccc2C(=O)O)c1Cc1ccccc1` sits?
Found: FALSE

Lookup: Strictly below 30 nM: is that where Ki of CCCc1c(OCCCOc2cc(O)c(-c3ccc(F)cc3)cc2CC)ccc2c1OC(C(=O)O)CC2 (stereo not drawn) sits?
Found: TRUE

Lookup: Strictly below 30 nM: is that where Ki of `CCCc1c(OCCCOc2cc(O)c(-c3ccc(F)cc3)cc2CC)cccc1Oc1cc(F)ccc1C(=O)O` sits?
Found: FALSE

Lookup: Strictly below 30 nM: is that where Ki of `CCc1cc(-c2ccc(F)cc2)c(O)cc1OCCCOc1ccc2c(=O)c3cc(C(=O)O)ccc3oc2c1CCC(=O)O` sits?
Found: TRUE

Lookup: Strictly below 30 nM: is that where Ki of `CCCc1c(OCCCCCOc2cc(O)c(-c3ccc(F)cc3)cc2CC)cccc1Oc1ccccc1C(=O)O` sits?
Found: FALSE

Lookup: Strictly below 30 nM: is that where Ki of CCCc1c(OCCCOc2cc(O)c(-c3ccc(F)cc3)cc2CC)cccc1[S+]([O-])c1ccccc1C(=O)O (stereo not drawn) sits?
Found: TRUE

Lookup: Strictly below 30 nM: is that where Ki of `CCc1cc(-c2ccc(F)cc2)c(O)cc1OCCCOc1cccc(OCCCCC(=O)O)c1CCC(=O)O` sits?
Found: TRUE

Lookup: Strictly below 30 nM: is that where Ki of `CCCc1c(OCCCOc2cc(O)c(-c3ccc(F)cc3)cc2CC)cccc1Oc1ccccc1CC(=O)O` sits?
Found: FALSE

Lookup: Strictly below 30 nM: is that where Ki of `CCc1cc(-c2ccc(F)cc2)c(O)cc1OCCCOc1cccc(OCCCCC(=O)N(C)C)c1CCC(=O)O` sits?
Found: TRUE

Lookup: Strictly below 30 nM: is that where Ki of `CCc1cc(-c2ccc(N(C)C)cc2)c(O)cc1OCCCCCC(C)(C)c1nn[nH]n1` sits?
Found: TRUE

Lookup: Strictly below 30 nM: is that where Ki of `CCc1cc(-c2cccc(C(F)(F)F)c2)c(O)cc1OCCCCCC(C)(C)c1nn[nH]n1` sits?
Found: FALSE

Lookup: Strictly below 30 nM: is that where Ki of `CCCc1c(OCCCOc2cc(O)c(-c3ccc(F)cc3)cc2CC)cccc1Oc1cccc(F)c1C(=O)O` sits?
Found: TRUE

Lookup: Strictly below 30 nM: is that where Ki of `CCc1cc(-c2ccccn2)c(O)cc1OCCCCCC(C)(C)c1nn[nH]n1` sits?
Found: FALSE

Lookup: Strictly below 30 nM: is that where Ki of `CCc1cc(-c2ccccc2)c(O)cc1OCCCOc1ccc2c(=O)c3cc(C(=O)O)ccc3oc2c1CCC(=O)O` sits?
Found: TRUE
